All values here come from ChEMBL document CHEMBL1127337.

molecular target: Vasopressin V2 receptor (Rattus norvegicus)
Sequence (Q00788 whole entry): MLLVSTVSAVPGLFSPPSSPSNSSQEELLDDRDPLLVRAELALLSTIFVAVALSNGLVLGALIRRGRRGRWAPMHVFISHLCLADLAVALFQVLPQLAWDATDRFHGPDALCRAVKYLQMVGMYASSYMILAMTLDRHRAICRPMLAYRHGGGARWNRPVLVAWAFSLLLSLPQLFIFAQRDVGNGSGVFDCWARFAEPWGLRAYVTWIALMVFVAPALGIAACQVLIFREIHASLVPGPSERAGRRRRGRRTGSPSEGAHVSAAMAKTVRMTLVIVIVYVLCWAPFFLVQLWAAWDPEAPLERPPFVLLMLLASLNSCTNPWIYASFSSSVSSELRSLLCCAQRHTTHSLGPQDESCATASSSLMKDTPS
pIC50: −log10 of the molar value.
// values below are reported pIC50

{"columns": ["substanceSmiles", "pIC50"],
 "data": [
  ["Cc1ccccc1N1CCN(S(=O)(=O)C[C@]23CCC(C[C@@H]2NC(=O)[C@H](CCS(C)(=O)=O)NC2CCNCC2)C3(C)C)CC1", 6.89],
  ["Cc1ccccc1N1CCN(S(=O)(=O)C[C@]23CCC(C[C@@H]2NC(=O)[C@H](CCS(C)(=O)=O)NC2CCCCC2)C3(C)C)CC1", 6.64],
  ["Cc1ccccc1N1CCN(S(=O)(=O)C[C@]23CCC(C[C@@H]2NC(=O)[C@H](CCS(C)(=O)=O)NC2CCOCC2)C3(C)C)CC1", 6.57],
  ["Cc1ccccc1N1CCN(S(=O)(=O)C[C@]23CCC(C[C@@H]2NC(=O)[C@@H](N)CCS(C)(=O)=O)C3(C)C)CC1", 6.24],
  ["CCN(CC)[C@@H](CCS(C)(=O)=O)C(=O)N[C@H]1CC2CC[C@]1(CS(=O)(=O)N1CCN(c3ccccc3C)CC1)C2(C)C", 6.51]
]}
